Values were extracted from paper PMC10138714.

QT listing for selected molecules.
System: rats
Experiment: Heart rate and ECG intervals in rats
Assay type: in vivo, male Wistar rats
Details: 10 mg/kg i.p., time 0 min
observed-property: QT

{"columns": ["molecule", "result"],
 "data": [
  ["c1ccc(-c2ccc(OCCCN3CCN(c4ccncc4)CC3)cc2)cc1 [KSK-61]", "56.3 ± 4.1 ms"],
  ["CC(=O)c1ccc(OCCCCCCCCN2CCN(c3ccncc3)CC2)cc1 [KSK-73]", "61.3 ± 2.2 ms"],
  ["CCC(=O)c1ccc(OCCCCCCCCN2CCN(c3ccncc3)CC2)cc1 [KSK-74]", "62.5 ± 4.3 ms"],
  ["O=C(c1ccccc1)c1ccc(OCCCN2CCN(c3ccncc3)CC2)cc1 [KSK-63]", "63.3 ± 5.1 ms"]
]}
